EXPERIMENT_DESCRIPTION: Tissue distribution in H22 cell tumor bearing mice
Type: in vivo, mouse
MEASUREMENT_SETUP: male, Kunming, mouse, heart / blood, iv; 1 h post injection, i.v. 4 mg/kg; read-out: ratio of the PPM concentration in heart and blood
QUANTITY: Kp at 1 h
One number for each entry.

(Q) Find the measured Kp at 1 h of `CO[C@H]1C[C@H](O[C@H]2CC[C@]3(C)[C@H]4CC[C@]5(C)[C@@H](C6=CC(=O)OC6)CC[C@]5(O)[C@@H]4CC[C@]3(O)C2)O[C@H](C)[C@H]1O` and report it.
(A) 5.21

* * *

System: L-02 cells
EXPERIMENT_DESCRIPTION: cells
Assay type: cell-based, human
MEASUREMENT_SETUP: Homo sapiens, L02; MTT, 72 h of incubation; read-out: IC50 L-02
QUANTITY: pIC50
Give bare numbers, as −log10 of the molar value.

(Q) Please indicate recorded pIC50 of `CO[C@H]1C[C@H](O[C@H]2CC[C@]3(C)[C@H]4CC[C@]5(C)[C@@H](C6=CC(=O)OC6)CC[C@]5(O)[C@@H]4CC[C@]3(O)C2)O[C@H](C)[C@H]1O` measured with L-02 cells.
(A) 6.89
